experimental system: T1, 4H662-AA
T1 chain: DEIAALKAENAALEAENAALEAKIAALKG
assay info: two-hybrid library CCmax;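 also: natural log of median RNA to DNA barcode read ratio; higher means stronger binding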
condition set: mean of both orientations
metric name: interaction score
Numbers only.

Completed entries (count: 3):
# binder, interaction score
data = [
    ("DKNAALKAEIAALKAEIAALKAKNAALKG [4H3664-AA]", -1.5),
    ("DKIAALEAENAALEAKNAALKAKIAALKG [4H2238-AA]", 1.18),
    ("DKIAALKAKIAALKAKNAALEAKNAALEG [4H2935-AA]", -1.34),
]

Take each entry in turn and give its interaction score.
1. DKNAALKAKIAALKAENAALEAEIAALKG [4H3922-AA]
2. DEIAALEAKIAALKAKNAALEAEIAALEG [4H369-AA]
3. DKNAALKAKNAALKAEIAALEAEIAALEG [4H4033-AA]

-1.16
1.3
1.17

# binder DKNAALKAEIAALEAKIAALKAEIAALEG [4H3625-AA] ; its interaction score = -1.3
